- Tested on: Septoria tritici
- assay-details: Test G: wheat leaf blotch on wheat seedlings, sprayed the day before inoculation, visual disease rating
- Type: in vivo
- measurement-context: 200 ppm; 100 = 100% disease control, 0 = no control relative to controls
measured-quantity: Test G disease control rating (%)
Numbers only, in %.

INSERT INTO measurements (compound_smiles, measured_quantity, experimental_result) VALUES
  ('COc1nn(C)c(-c2ccc(F)cc2Cl)c1-c1ccc(I)cc1', 'Test G disease control rating', 25),
  ('Fc1cc(F)c(-c2c(Cl)nc(Br)n2-c2cccc(OC(F)(F)F)c2)c(F)c1', 'Test G disease control rating', 73),
  ('COc1ccc(F)c(-c2c(Cl)nc(Br)n2-c2ccc(Cl)c(F)c2)c1F', 'Test G disease control rating', 95),
  ('Cc1ccc(-n2c(C)nc(Cl)c2-c2c(F)cccc2F)cc1', 'Test G disease control rating', 91);

Okay, here is my list. What is Test G disease control rating for each of these?
1. Cc1nc(Cl)c(-c2c(F)ccc(F)c2F)n1-c1ccc(Cl)c(Cl)c1
2. Fc1cc(-n2c(Cl)nc(Cl)c2-c2cnc3ccccc3c2)ccc1Cl

1. 96
2. 81
